Answer each item with its documented EC50.
# assay-target: glucagon receptor (UniProt P47871 26-477, limits assumed)
# Sequence (P47871 26-477 limits assumed): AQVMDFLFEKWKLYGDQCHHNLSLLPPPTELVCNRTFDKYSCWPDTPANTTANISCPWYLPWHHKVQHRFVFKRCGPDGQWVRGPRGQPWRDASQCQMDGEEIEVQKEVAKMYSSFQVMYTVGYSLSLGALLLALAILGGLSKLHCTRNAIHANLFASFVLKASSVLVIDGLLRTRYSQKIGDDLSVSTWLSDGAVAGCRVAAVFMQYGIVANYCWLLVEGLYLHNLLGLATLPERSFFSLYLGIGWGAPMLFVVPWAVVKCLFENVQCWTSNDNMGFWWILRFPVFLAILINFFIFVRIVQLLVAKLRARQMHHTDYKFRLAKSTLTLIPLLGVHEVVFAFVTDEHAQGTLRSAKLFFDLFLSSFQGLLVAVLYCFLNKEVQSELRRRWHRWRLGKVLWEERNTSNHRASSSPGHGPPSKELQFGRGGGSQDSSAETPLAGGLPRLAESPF
# experiment: cell-based or functional assay
Non-standard residues stand in square brackets, D forms with d. No end group written: not given here. Dab = NCC[C@H](N)C(=O)O; Aib = CC(C)(N)C(=O)O
Numbers only, in nM.

{"columns": ["binder", "units-of-measure", "EC50"],
 "data": [
  ["HS[Dab](Ac)GTFTSDYSKYLD[Aib]RRASDFVSWLLDE [HSDab(Ac)…ibRRASDFVSWLLDE (SEQ ID NO: 605)]", "nM", 0.048]
]}

Now look at this entry.
Measured EC50 of HS[Dab](Ac)GTFTSDYSKYLD[Aib]RRATDFVTWLLDE [HSDab(Ac)…ibRRATDFVTWLLDE (SEQ ID NO: 606)] : 0.057
